Test system: MS2 coat protein
assay.info: apparent KD of MS2 coat protein; designed switch direction (-1 OFF switch, 1 ON switch): -1; higher = weaker reporter binding
test.conditions: input ligand: none
quantity.name: apparent KD of MS2 coat protein (nM)
Value expressed in nM; do not type the unit.

The sequence AUAAUGUGAGGAUAUCAGUCGACUAGCGAUAGCUAGUCGACUGAGAAGGUACAUGAGGAUCACCCAUGUAGAUC [E4/20-A4] (Eterna round: R97, puzzle: Exclusion 4) showed apparent KD of MS2 coat protein equal to 31

The sequence GUAAACGAUCAGGAUAUAUCAAAUCAUAGCUUGAUAGAAGGGAUCACAUGAGGAUCACCCAUGUGAUCUUCUUA [Mat - Exclusion 6 - JL Mod - D36] (Eterna round: R97, puzzle: Exclusion 6) showed apparent KD of MS2 coat protein equal to 10.9

The sequence GCAGCAUAGUCGGAAACGACAGAACAUGAGGAUCACCCAUGUCAGGAUAUGGUCUGGAUUACAGGCCAGAAGGGACGAAGCUGC [Eli exng3 - 010] (Eterna round: R96, puzzle: Exclusion NG 3) showed apparent KD of MS2 coat protein equal to 16

The sequence GCAGCAAACCCAAUUAAAACCACAUGAGGAUCACCCAUGUCUCAGGAUAUGGUCUGGAUUACAGGCCAGAAGGGAGAAAGCUGC [Eli exng3 - 052] (Eterna round: R96, puzzle: Exclusion NG 3) showed apparent KD of MS2 coat protein equal to 17.7

The sequence GUCAAACAUGAGGAUCACCCAUGUGAGGAUAUUUAGGAUAGGAUAUGACUACUACUCCGAAGAAGGCACUCGGG [Eternabot (L1) Solution 7] (Eterna round: R97, puzzle: Exclusion 1) showed apparent KD of MS2 coat protein equal to 38.5

* * *

Tested on: K4 kissing-loop RNA reporter;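 note: bound reporter read as fluorescence of individual clusters on recovered sequencing chips by microscopy, with normalized cluster intensities fitted with a binding model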
assay.info: apparent KD of K4 kissing-loop reporter; higher = weaker reporter binding
test.conditions: Eterna round: R107; input ligand: tryptophan 2.4 mM
Would you mind telling me the reported apparent KD of K4 kissing-loop reporter of each entry?
Value expressed in nM; do not type the unit.

The sequence CCAUCGCUAUUCGAUACCAGCCAAGAGGUCUUUGGCCUCUUAAUGGAGUGAUGUUCCAUUGGCCCUUGGCAGCGAAUAGUGAUGG [Theophylline B K4 18] showed apparent KD of K4 kissing-loop reporter equal to 798

The sequence AAGUGUCAUUAGACACACGCAUCUAUAAACUAGGAUAUGCUGAUAAGCAGAAGGAGUGAUGUUCCUUUCAUGAUGCGAAUUAAAU [#07 K4 FMN A Exclusion] showed apparent KD of K4 kissing-loop reporter equal to 111

The sequence AAGCAGUCGCUCGAAGCCAUCGAAGAUGGGCGAGGACCGGUACGGCCGCCACUCGGAGUGAUGUUCCGAGGACUGCAAAAUAAAA [MatMod 5 - Jieux - Exclusion - Tryptophan A] showed apparent KD of K4 kissing-loop reporter equal to 409

The sequence UCUGUUGUAUAUGAUACCAGCAGUGAGAGAUGAGAAGUAUAGUGAUGUUAUAUGAGUGAAUGCCCUUGGCAGCGUGUGCGUGUGG [SSTheophylB.aD] showed apparent KD of K4 kissing-loop reporter equal to 87.5

The sequence UGAUAGGACAGAAGGAGCGGGAGUGAUGUUCCCAAAAGUAUAAGGUGUCAAAAGACACCCUCCCAGGUAGGUCGCUGUCCUAUCU showed apparent KD of K4 kissing-loop reporter equal to 367

The sequence AAAACUAUCAGAAGGAGCGUGGAAUAUUCAUCUGUAUCUAAUACGAGUGAUGUUCGUAAUUCACAGGUAGGUCGCUGAUCAAUAA [whbob_Ex_Arginine_B_2th155] showed apparent KD of K4 kissing-loop reporter equal to 241
